biological target: Env of HIV-1 strain PVO.4 (HIV-1); assay: cell-based or functional assay
EXPERIMENTAL_ENDPOINT: neutralization IC50 (µg/mL)
Give the value in µg/mL but do not write µg/mL after it.

Name the recorded neutralization IC50 for γ23κ5 (antibody, V domains shown) VH: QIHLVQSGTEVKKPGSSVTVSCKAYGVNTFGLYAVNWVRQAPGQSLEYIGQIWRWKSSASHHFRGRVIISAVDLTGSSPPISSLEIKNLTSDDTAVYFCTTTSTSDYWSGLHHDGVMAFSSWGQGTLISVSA VL: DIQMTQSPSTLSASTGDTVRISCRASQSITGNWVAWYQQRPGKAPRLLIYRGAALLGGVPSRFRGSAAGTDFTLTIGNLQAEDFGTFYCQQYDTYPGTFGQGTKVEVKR .
0.043

The measurements presented in this section are drawn from patent US20180171001A1.
